- Target of assay: glucosylceramide synthase (GCS) (Homo sapiens (Human), UniProt Q16739)
- Sequence (Q16739 whole entry): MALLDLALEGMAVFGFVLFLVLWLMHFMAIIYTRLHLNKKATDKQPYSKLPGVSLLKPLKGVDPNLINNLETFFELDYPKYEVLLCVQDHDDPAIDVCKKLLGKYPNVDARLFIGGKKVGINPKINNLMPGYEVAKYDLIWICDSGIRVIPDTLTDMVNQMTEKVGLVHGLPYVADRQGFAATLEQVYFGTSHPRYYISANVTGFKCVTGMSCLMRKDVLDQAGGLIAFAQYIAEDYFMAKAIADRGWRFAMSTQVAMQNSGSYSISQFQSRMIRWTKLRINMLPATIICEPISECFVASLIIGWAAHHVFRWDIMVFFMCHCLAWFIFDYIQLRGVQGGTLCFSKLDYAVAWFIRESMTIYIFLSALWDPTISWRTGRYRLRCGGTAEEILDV
- Experimental details: Evaluation of inhibitory activities against GCS (A549 cell lysate, NBD C6-ceramide, HPLC)
- Type: biochemical
Binary label based on IC50 with cut-off 1 nM: below gives criterion met, not below gives criterion not met.

CC(C)c1cccc(-c2ccc3c(c2)CCC(C)(C)[C@H]3NC(=O)O[C@@H]2CN3CCC2CC3)c1 : criterion not met
CCOc1cc2c(cc1-c1ccc(OCC(C)C)cc1)CC(C)(C)[C@H]2NC(=O)O[C@@H]1CN2CCC1CC2 : criterion met
COc1ccc(-c2cc3c(cc2F)[C@H](NC(=O)O[C@@H]2CN4CCC2CC4)C(C)(C)C3)cc1Cl : criterion met
COc1c(C)cc(-c2cc3c(cc2F)[C@H](NC(=O)O[C@@H]2CN4CCC2CC4)C(C)(C)CC3)cc1C : criterion not met
CC(C)Oc1cc(Cl)cc(-c2cc3c(cc2F)[C@H](NC(=O)O[C@@H]2CN4CCC2CC4)C(C)(C)C3)c1 : criterion met
COc1ccc(-c2ccc3c(c2)CC(C)(C)[C@H]3NC(=O)O[C@@H]2CN3CCC2CC3)cc1F : criterion not met
CCCCOc1c(C)cc(-c2cc3c(cc2F)[C@H](NC(=O)O[C@@H]2CN4CCC2CC4)C(C)(C)CC3)cc1C : criterion not met

Sourced from patent US20240262819A1
